recordedEndpoint: melting point

**Query** GET /values?readout=melting point&item= `Cn1c(=N)c(F)cn(C(=O)Nc2ccc(C(F)(F)F)cc2)c1=O`
**Result** 192.4 to 195.7 °C

**Query** Also `Cn1c(=N)c(F)cn(C(=O)Nc2cc(F)cc(F)c2)c1=O` ?
**Result** 203 to 204.5 °C

**Query** Also `Cn1c(=N)c(F)cn(C(=O)Nc2ccc(Cl)cc2)c1=O` ?
**Result** 199 to 200.8 °C

**Query** Also `Cn1c(=N)c(F)cn(C(=O)Nc2ccc(F)cc2Cl)c1=O` ?
**Result** 203.6 to 205.5 °C

**Query** Also `COc1cccc(NC(=O)n2cc(F)c(=N)n(C)c2=O)c1` ?
**Result** 195.5 to 196.3 °C

**Query** Also `Cc1cc(NC(=O)n2cc(F)c(=N)n(C)c2=O)c(C)cc1Cl` ?
**Result** 210 to 213 °C

**Query** Also `Cn1c(=N)c(F)cn(C(=O)Nc2cc(Cl)cc(Cl)c2)c1=O` ?
**Result** 210 to 213.1 °C

**Query** Also `Cc1cccc(NC(=O)n2cc(F)c(=N)n(C)c2=O)c1` ?
**Result** 188.5 to 192.4 °C

**Query** Also `Cn1c(=N)c(F)cn(C(=O)Nc2cccc(F)c2)c1=O` ?
**Result** 197.5 to 199.4 °C
